Origin of the recorded values: patent US20050220836A1

system: human smooth muscle cells; assay: Cladribine example, PDGF-stimulated cell proliferation, smooth muscle cells; type: cell-based; conditions: Homo sapiens; PDGF AB stimulated, reduction to 50 percent of vehicle-treated cell count; read-out: IC50 for inhibition of smooth muscle cell growth
experimentalReadout: pIC50
Answer as the number alone; pIC50 is minus log10 of concentration in mol/L.

Qu. Quick check: pIC50 on human smooth muscle cells, item `Nc1nc(Cl)nc2c1ncn2[C@H]1C[C@H](O)[C@@H](CO)O1` ?
Ans. 7.64

* * *

test system: human endothelial cells; assay: Cladribine example, PDGF-stimulated cell proliferation, endothelial cells; format: cell-based; conditions: Homo sapiens, Endothelial cell; PDGF AB stimulated, reduction to 50 percent of vehicle-treated cell count; read-out: IC50 for inhibition of endothelial cell growth
experimentalReadout: pIC50
By convention, pIC50 is the negative base-10 log of a molar concentration.

Qu. Return reported pIC50; argument: `Nc1nc(Cl)nc2c1ncn2[C@H]1C[C@H](O)[C@@H](CO)O1`
Ans. 7.40
